# Measurement notes: Cytotoxicity against rat PC12 cells assessed as reduction in cell viability at 20 uM incubated for 24 hrs by MTT assay
# Format: cell-based
# Test settings: pc-12, 24 h
Recorded metric: Activity

>  <Smiles input>
COc1ccc(/C=C/C(=O)N2CCCCC2=O)cc1

>  <Recorded metric>
Activity

>  <Readout value>
Non-toxic

$$$$
>  <Smiles input>
O=C(/C=C/c1ccc(Br)cc1)N1CCCCC1=O

>  <Recorded metric>
Activity

>  <Readout value>
Non-toxic

$$$$
>  <Smiles input>
O=C(/C=C/c1ccccc1)N1CCCCCC1=O

>  <Recorded metric>
Activity

>  <Readout value>
Non-toxic

$$$$
>  <Smiles input>
COc1ccc(/C=C/C(=O)N2CCCC2=O)cc1OC

>  <Recorded metric>
Activity

>  <Readout value>
Non-toxic

$$$$
>  <Smiles input>
O=C(/C=C/c1ccc(C(F)(F)F)cc1)N1CCCCC1=O

>  <Recorded metric>
Activity

>  <Readout value>
Non-toxic

$$$$
>  <Smiles input>
COc1cc(/C=C/C(=O)N2CCCC2=O)cc(OC)c1OC

>  <Recorded metric>
Activity

>  <Readout value>
Non-toxic

$$$$
>  <Smiles input>
O=C(/C=C/c1ccc(Br)cc1)N1CCCC1=O

>  <Recorded metric>
Activity

>  <Readout value>
Non-toxic

$$$$
>  <Smiles input>
O=C(/C=C/c1ccc(O)cc1)N1CCCC1=O

>  <Recorded metric>
Activity

>  <Readout value>
Non-toxic

$$$$
>  <Smiles input>
COc1cc(/C=C/C(=O)N2CCCCCC2=O)cc(OC)c1OC

>  <Recorded metric>
Activity

>  <Readout value>
Non-toxic

$$$$
>  <Smiles input>
COc1cc(/C=C/C(=O)N2CCC=CC2=O)cc(OC)c1OC

>  <Recorded metric>
Activity

>  <Readout value>
Toxic

$$$$
>  <Smiles input>
O=C(/C=C/c1ccc([N+](=O)[O-])cc1)N1CCCCC1=O

>  <Recorded metric>
Activity

>  <Readout value>
Non-toxic

$$$$
>  <Smiles input>
O=C(/C=C/c1ccccc1)N1CCCCC1=O

>  <Recorded metric>
Activity

>  <Readout value>
Non-toxic

$$$$

---

# Measurement notes: Cytotoxicity against human L02 cells assessed as reduction in cell viability at 20 uM to 100 uM incubated for 24 hrs by MTT assay
# Format: cell-based
# Test settings: l02, 24 h

>  <Smiles input>
COc1ccc(/C=C/C(=O)N2CCCC2=O)cc1

>  <Activity>
Non-toxic

$$$$
>  <Smiles input>
COc1cc(/C=C/C(=O)N2CCCC2=O)cc(OC)c1OC

>  <Activity>
Non-toxic

$$$$
>  <Smiles input>
COc1cc(/C=C/C(=O)N2CCC=CC2=O)cc(OC)c1OC

>  <Activity>
Toxic

$$$$
>  <Smiles input>
COc1ccc(/C=C/C(=O)N2CCCCC2=O)cc1

>  <Activity>
Non-toxic

$$$$
>  <Smiles input>
COc1cc(/C=C/C(=O)N2CCCCC2=O)cc(OC)c1OC

>  <Activity>
Non-toxic

$$$$
>  <Smiles input>
COc1cc(/C=C/C(=O)N2CCCCCC2=O)cc(OC)c1OC

>  <Activity>
Non-toxic

$$$$

---

# Measurement notes: Cytotoxicity against human L02 cells assessed as reduction in cell viability at 20 uM to 100 uM incubated for 24 hrs by MTT assay
# Assay type: cell-based
# Test settings: l02, 24 h
Recorded metric: Activity

>  <Molecule>
COc1ccc(/C=C/C(=O)N2CCCC2=O)cc1OC

>  <Recorded metric>
Activity

>  <Readout value>
Non-toxic

$$$$
>  <Molecule>
O=C(/C=C/c1ccc(O)cc1)N1CCCC1=O

>  <Recorded metric>
Activity

>  <Readout value>
Non-toxic

$$$$
>  <Molecule>
COc1cc(CCC(=O)N2CCCCC2=O)cc(OC)c1OC [TETRAHYDROPIPLARTINE]

>  <Recorded metric>
Activity

>  <Readout value>
Non-toxic

$$$$
